Hey, just so you know, these numbers are from ChEMBL document CHEMBL1131076.

# Species: Oryctolagus cuniculus
# METHOD_NOTES: Compound was evaluated for the prokinetic activity by measuring smooth muscle contractility from rabbit duodenum isolated tissue.
# Assay type: functional
Assign classes using reported pED50 values and the ranges lowest (below 5), middle (5 to below 8), highest (8 or more), please.

MOLECULE	ASSIGNED_CATEGORY
CC[C@H]1OC(=O)[C@H](C)[C@@H](OC2C[C@@](C)(OC)C[C@H](C)O2)[C@H](C)[C@@H](OC2O[C@H](C)C[C@H](N(C)CC#N)[C@H]2O)[C@@]2(C)C[C@H](C)[C@H](O2)[C@H](C)[C@@H](O)[C@]1(C)O (some centres undefined)	middle
CC[C@H]1OC(=O)[C@H](C)[C@@H](OC2C[C@@](C)(OC)C[C@H](C)O2)[C@H](C)[C@@H](OC2O[C@H](C)C[C@H](N(C)C)[C@H]2O)[C@@]2(C)C[C@@H](C)[C@@H](O2)[C@H](C)[C@@H](O)[C@]1(C)O (some centres undefined)	middle
CC[C@H]1OC(=O)[C@H](C)[C@@H](OC2C[C@@](C)(OC)C[C@H](C)O2)[C@H](C)[C@@H](OC2O[C@H](C)C[C@H](N(C)Cc3ccccc3)[C@H]2O)[C@@]2(C)C[C@H](C)[C@H](O2)[C@H](C)[C@@H](O)[C@]1(C)O (some centres undefined)	lowest
CC[C@H]1OC(=O)[C@H](C)[C@@H](OC2C[C@@](C)(OC)C[C@H](C)O2)[C@H](C)[C@@H](OC2O[C@H](C)C[C@H](N(C)CC)[C@H]2O)[C@@]2(C)C[C@H](C)[C@H](O2)[C@H](C)[C@@H](O)[C@]1(C)O (some centres undefined)	highest
CC[C@H]1OC(=O)[C@H](C)[C@@H](OC2C[C@@](C)(OC)C[C@H](C)O2)[C@H](C)[C@@H](OC2O[C@H](C)C[C@H](N(C)CCN)[C@H]2O)[C@@]2(C)C[C@H](C)[C@H](O2)[C@H](C)[C@@H](O)[C@]1(C)O (some centres undefined)	middle
CCCCN(C)[C@H]1C[C@@H](C)OC(O[C@@H]2[C@@H](C)[C@H](OC3C[C@@](C)(OC)C[C@H](C)O3)[C@@H](C)C(=O)O[C@H](CC)[C@@](C)(O)[C@H](O)[C@@H](C)[C@H]3O[C@]2(C)C[C@@H]3C)[C@@H]1O (some centres undefined)	lowest
